Source: patent US20240041042A1

# Tested on: Pharbitis purpurea (PHBPU)
# PROCEDURE DETAILS: Pre-emergence herbicidal action against PHBPU
# Type: in vivo
# ASSAY SETUP: dosage 320 g/ha
READOUT TYPE: Pre-emergence action against PHBPU in % (%)
# value in %; strip the unit string

input: // lookup Pre-emergence action against PHBPU in % for COCCOC(=O)COc1nn(-c2ncccc2C)c(-c2cncc(F)c2)c1Br [Example I-212]
output: 90

input: // lookup Pre-emergence action against PHBPU in % for CCOC(=O)COc1nn(-c2cccc(C)n2)c(-c2ccc(F)nc2)c1Cl [Example I-352]
output: 80

input: // lookup Pre-emergence action against PHBPU in % for COC(=O)COc1nn(-c2ncccc2F)c(-c2ccc(F)nc2)c1Br [Example I-07]
output: 90

input: // lookup Pre-emergence action against PHBPU in % for COC(=O)CCOC(=O)COc1nn(-c2ccccn2)c(-c2ccc(F)nc2)c1Br [Example I-116]
output: 90

input: // lookup Pre-emergence action against PHBPU in % for C[C@H](NC(=O)COc1nn(-c2ccccn2)c(-c2cncc(F)c2)c1Br)C(=O)O [Example I-80]
output: 90

input: // lookup Pre-emergence action against PHBPU in % for C[C@@H](Oc1nn(-c2ncccc2F)c(-c2ccc(F)nc2)c1Br)C(=O)O [Example I-18]
output: 90

input: // lookup Pre-emergence action against PHBPU in % for COC(=O)COc1nn(-c2ncccc2C(F)(F)F)c(-c2cncc(F)c2)c1Br [Example I-206]
output: 80

input: // lookup Pre-emergence action against PHBPU in % for CCOC(=O)[C@@H](C)Oc1nn(-c2ncccc2F)c(-c2ccc(F)nc2)c1Br [Example I-33]
output: 90

input: // lookup Pre-emergence action against PHBPU in % for CCOC(=O)COc1nn(-c2nc(F)ccc2F)c(-c2cncc(F)c2)c1Br [Example I-193]
output: 90

input: // lookup Pre-emergence action against PHBPU in % for COC(=O)[C@@H](C)Oc1nn(-c2ncccc2F)c(-c2cncc(F)c2)c1Br [Example I-15]
output: 80

input: // lookup Pre-emergence action against PHBPU in % for CCOC(=O)COc1nn(-c2ccccn2)c(-c2ccc(F)nc2)c1Br [Example I-86]
output: 90

input: // lookup Pre-emergence action against PHBPU in % for COC(=O)CNC(=O)COc1nn(-c2ccccn2)c(-c2ccc(F)nc2)c1Cl [Example I-64]
output: 90

input: // lookup Pre-emergence action against PHBPU in % for COC(=O)COc1nn(-c2ncccc2F)c(-c2cncc(F)c2)c1C1CC1 [Example I-167]
output: 90

input: // lookup Pre-emergence action against PHBPU in % for O=C(O)COc1nn(-c2ccccn2)c(-c2cncc(F)c2)c1Br [Example I-84]
output: 90

input: // lookup Pre-emergence action against PHBPU in % for O=C(O)COc1nn(-c2ncccc2F)c(-c2cncc(F)c2)c1C1CC1 [Example I-175]
output: 90

input: // lookup Pre-emergence action against PHBPU in % for O=C(O)COc1nn(-c2ccccn2)c(-c2cncc(F)c2)c1Cl [Example I-81]
output: 100

input: // lookup Pre-emergence action against PHBPU in % for O=C(O)COc1nn(-c2ncccc2F)c(-c2ccc(F)nc2)c1Br [Example I-17]
output: 90

input: // lookup Pre-emergence action against PHBPU in % for CCOC(=O)COc1nn(-c2ncccc2C)c(-c2cncc(F)c2)c1Br [Example I-211]
output: 90

input: // lookup Pre-emergence action against PHBPU in % for C[C@@H](Oc1nn(-c2ncccc2F)c(-c2ccc(F)nc2)c1Br)C(=O)OCc1ccccn1 [Example I-52]
output: 90

input: // lookup Pre-emergence action against PHBPU in % for C[C@@H](Oc1nn(-c2ccccn2)c(-c2cncc(F)c2)c1Cl)C(=O)O [Example I-218]
output: 90

input: // lookup Pre-emergence action against PHBPU in % for CCOC(=O)COc1nn(-c2ncccc2F)c(-c2ccc(F)nc2)c1Br [Example I-51]
output: 90

input: // lookup Pre-emergence action against PHBPU in % for CCOC(=O)COc1nn(-c2ncccc2F)c(-c2ccc(F)nc2)c1C(F)(F)F [Example I-56]
output: 90

input: // lookup Pre-emergence action against PHBPU in % for CCOC(=O)COc1nn(-c2nc(F)ccc2F)c(-c2ccc(F)nc2)c1Br [Example I-330]
output: 90

input: // lookup Pre-emergence action against PHBPU in % for COCCOC(=O)[C@@H](C)Oc1nn(-c2ncccc2F)c(-c2ccc(F)nc2)c1Br [Example I-35]
output: 90

input: // lookup Pre-emergence action against PHBPU in % for C[C@@H](Oc1nn(-c2nc(F)ccc2F)c(-c2cncc(F)c2)c1C1CC1)C(=O)O [Example I-180]
output: 90

input: // lookup Pre-emergence action against PHBPU in % for COC(=O)CCOC(=O)COc1nn(-c2ccccn2)c(-c2ccc(F)nc2)c1Br [Example I-247]
output: 80

input: // lookup Pre-emergence action against PHBPU in % for COCCOCCOC(=O)COc1nn(-c2ncccc2F)c(-c2ccc(F)nc2)c1Br [Example I-37]
output: 90

input: // lookup Pre-emergence action against PHBPU in % for CCOC(=O)COc1nn(-c2ncccc2F)c(-c2cncc(F)c2)c1C1CC1 [Example I-174]
output: 90

input: // lookup Pre-emergence action against PHBPU in % for CCOC(=O)COc1nn(-c2ccccn2)c(-c2ccc(F)nc2)c1Cl [Example I-85]
output: 100

input: // lookup Pre-emergence action against PHBPU in % for COC(=O)CCOC(=O)COc1nn(-c2ccccn2)c(-c2cncc(F)c2)c1Br [Example I-77]
output: 90

input: // lookup Pre-emergence action against PHBPU in % for CCOC(=O)COc1nn(-c2nc(F)ccc2F)c(-c2ccc(F)nc2)c1Cl [Example I-315]
output: 90

input: // lookup Pre-emergence action against PHBPU in % for COC(=O)CNC(=O)COc1nn(-c2ccccn2)c(-c2ccc(F)nc2)c1Br [Example I-97]
output: 90

input: // lookup Pre-emergence action against PHBPU in % for O=C(O)COc1nn(-c2nc(F)ccc2F)c(-c2ccc(F)nc2)c1Cl [Example I-337]
output: 80

input: // lookup Pre-emergence action against PHBPU in % for COCCOC(=O)COc1nn(-c2cccc(C)n2)c(-c2ccc(F)nc2)c1Cl [Example I-279]
output: 100
